- System: Anti-HBsAg antibody(g)
- ASSAY: Antigen-induced release of fluorescently labeled peptide from immobilized antibody (Table 2), HBsAg antigen
- Type: binding, goat
- CONDITIONS_USED: anti-HBsAg antibody (goat), HBsAg
Recorded fluorescence intensity Bottom (B) of microplate Before antigen binding for the following sequences
READOUT_KIND: fluorescence intensity Bottom (B) of microplate Before antigen binding

SEQ: VYYCFQGSHVPFTK [L2, VYYCF QGSHV PFTK]
TARGET_OF_ASSAY: Anti-HBsAg antibody(g)
RESULT: 28002

SEQ: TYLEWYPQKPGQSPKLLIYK [L1, TYLEW YPQKP GQSPK LLIYK]
TARGET_OF_ASSAY: Anti-HBsAg antibody(g)
RESULT: 11062

SEQ: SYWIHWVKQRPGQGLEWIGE [H1, SYWIH WVKQR PGQGL EWIGE]
TARGET_OF_ASSAY: Anti-HBsAg antibody(g)
RESULT: 11225

SEQ: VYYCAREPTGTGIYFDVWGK [H2, VYYCA REPTG TGIYF DVWGK]
TARGET_OF_ASSAY: Anti-HBsAg antibody(g)
RESULT: 29367
